Reported apparent KD of MS2 coat protein is given for each of the following sequences.
Tested on: MS2 coat protein
assay.protocol: apparent KD of MS2 coat protein; designed switch direction (-1 OFF switch, 1 ON switch): -1; higher = weaker reporter binding
particulars: input ligand: FMN 200 uM
The reply should contain only the number, in nM.

{"chain.sequence": "AGUAUGUUAGGAUAUUCCAUUGCUGUCAGCUCGGCGUCACAGAAGAAGGGACAUGAGGAUCACCCAUGUUAGGC [Eternabot (L1) Solution 96] (Eterna round: R97, puzzle: Exclusion 4)", "apparent KD of MS2 coat protein, nM": 57.3}
{"chain.sequence": "UAAAAGACAGGAUAUACUAACAACGACUUGAGGAUCACCCAAGUGGUAAGAGUCGAUCAUGUAGAAGGGUUAAAAC [Atsoce] (Eterna round: R97, puzzle: Exclusion 5)", "apparent KD of MS2 coat protein, nM": 74.3}
{"chain.sequence": "GGAGGAAGAGAGGAUAUGCGCUCAAGGAGAAAAGCAGAAGGUUCAACAUGAGGAUCACCCAUGUAUGAUCCUCA [AK-MS2ROC-r4-exclusion6-4] (Eterna round: R97, puzzle: Exclusion 6)", "apparent KD of MS2 coat protein, nM": 342}
{"chain.sequence": "CUGUGCACGCUGCGGUCCUACAUGAGGAUCACCCAUGUGGUCUGGUGGCGUGGGUCGCCGGACUUGGCUCGUCUUGU [salish99_S_TOV1_R5_024] (Eterna round: R97, puzzle: Sensor, turn-off variant 1)", "apparent KD of MS2 coat protein, nM": 18.2}
{"chain.sequence": "CAGGACAGAGGAUAUACAUAGAUACAGAUUCAUGUAGAACUACAUGAGGAUCACCCAUGUAGAAGGCUGACCUG [Fiskers Ex 2 - 4] (Eterna round: R96, puzzle: Exclusion 2)", "apparent KD of MS2 coat protein, nM": 311}

API: the following record is the query input.
-- ask Give the reported apparent KD of MS2 coat protein for CUCAAGUUAGGAUAUCCAAACGACACGUGCGGACGUUCAACGGAGAAGGGACUUGAGGAUCACCCAAGUUAAAA [Riusbireis] (Eterna round: R97, puzzle: Exclusion 4) (system: MS2 coat protein).
-- reply 137

* * *

Reported apparent KD of MS2 coat protein is given for each of the following sequences.
Tested on: MS2 coat protein
assay.protocol: apparent KD of MS2 coat protein; higher = weaker reporter binding
particulars: Eterna round: R107; input ligand: theophylline 20 uM
The reply should contain only the number, in nM.

Solved cases below.
{"chain.sequence": "CGGUUUGUGAUGGAUACCAGCAGAGAAAAUGUUUAUCCUAACAUGAGGAUCACCCAUGUGUGCCCUUGGCAGCUGUUGUGGGCUG [8.W]", "result.units": "nM", "apparent KD of MS2 coat protein": 72.6}
{"chain.sequence": "UUUUAAUGUGCGGAUACCAGCCGUACAUGAGGAUCACCCAUGUCGCUGUUGAGCAUCGUCGGCCCUUGGCAGCUGUGUGUAGUUG [#27 Same State - Theophylline B]", "result.units": "nM", "apparent KD of MS2 coat protein": 62.7}
{"chain.sequence": "UGGUACAUGGCGGCCGCCACUUCACGUAAAAUAAAAGCUUGAGGAUCACCCAAGUAAUAAGUUGGGAGGACCGGGUCAUGUACCU", "result.units": "nM", "apparent KD of MS2 coat protein": 27}
{"chain.sequence": "CACGAAAGAUCGGCCGCCACUCAUGUUUCUUACAUGAGGAUCACCCAUGUAUUUUCUUUCUUUUAGAGGACCGGGAUCGAGCGUG [#01 Same State - Tryptophan B]", "result.units": "nM", "apparent KD of MS2 coat protein": 78.4}

API: the following record is the query input.
-- ask Can you look up the measured apparent KD of MS2 coat protein of GCUGUAAGUGCAGAUACCAGCAUGUUAUAUUUCUAAUGACAUGAGGAUCACCCAUGUAAAUGCCCUUGGCAGCUGCACUUACAGC [SSTHB #6] for me?
-- reply 21.4
